target-or-system: E. coli topoisomerase IV (Escherichia coli, UniProt P0AFI2+P20083)
Sequence (P20083 whole entry): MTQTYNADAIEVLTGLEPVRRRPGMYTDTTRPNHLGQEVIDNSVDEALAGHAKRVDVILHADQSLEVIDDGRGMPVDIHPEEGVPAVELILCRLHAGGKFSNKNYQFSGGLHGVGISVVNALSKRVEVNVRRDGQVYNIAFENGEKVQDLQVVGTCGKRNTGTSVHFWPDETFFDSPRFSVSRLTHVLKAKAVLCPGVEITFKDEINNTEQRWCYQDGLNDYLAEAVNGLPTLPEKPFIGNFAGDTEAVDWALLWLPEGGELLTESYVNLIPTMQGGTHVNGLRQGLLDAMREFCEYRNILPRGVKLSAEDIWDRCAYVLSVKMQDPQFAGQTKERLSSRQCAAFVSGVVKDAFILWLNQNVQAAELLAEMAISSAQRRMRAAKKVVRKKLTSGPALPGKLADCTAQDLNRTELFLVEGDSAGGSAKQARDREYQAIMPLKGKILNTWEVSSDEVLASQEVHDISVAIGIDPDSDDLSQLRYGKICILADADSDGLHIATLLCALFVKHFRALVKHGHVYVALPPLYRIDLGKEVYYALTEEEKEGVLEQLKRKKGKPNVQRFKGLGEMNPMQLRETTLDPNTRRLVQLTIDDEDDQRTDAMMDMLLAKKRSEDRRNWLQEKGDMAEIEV
Sequence (P0AFI2 whole entry): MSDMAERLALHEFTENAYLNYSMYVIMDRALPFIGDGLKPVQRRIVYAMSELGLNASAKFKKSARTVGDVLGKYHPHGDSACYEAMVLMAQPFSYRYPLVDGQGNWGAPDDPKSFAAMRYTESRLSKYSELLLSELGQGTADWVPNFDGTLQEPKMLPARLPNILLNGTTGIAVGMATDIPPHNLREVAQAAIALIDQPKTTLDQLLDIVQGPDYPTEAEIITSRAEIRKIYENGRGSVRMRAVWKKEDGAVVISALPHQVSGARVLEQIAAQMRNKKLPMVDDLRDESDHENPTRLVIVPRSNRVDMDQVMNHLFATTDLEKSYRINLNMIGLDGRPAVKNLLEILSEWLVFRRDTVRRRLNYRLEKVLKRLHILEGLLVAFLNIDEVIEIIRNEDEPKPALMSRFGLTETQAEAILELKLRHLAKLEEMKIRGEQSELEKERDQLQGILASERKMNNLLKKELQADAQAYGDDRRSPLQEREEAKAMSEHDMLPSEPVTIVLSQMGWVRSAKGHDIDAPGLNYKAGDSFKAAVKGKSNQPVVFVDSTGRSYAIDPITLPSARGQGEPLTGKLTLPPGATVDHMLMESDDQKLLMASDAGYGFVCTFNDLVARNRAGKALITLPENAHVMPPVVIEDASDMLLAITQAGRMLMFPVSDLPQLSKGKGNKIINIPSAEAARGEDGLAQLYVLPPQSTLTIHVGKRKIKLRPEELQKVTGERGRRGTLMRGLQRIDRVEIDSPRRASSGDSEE
method-description: biochemical
condition: decatenation assay; read-out: E. coli Topo IV IC50
Reported values of pIC50 for individual entries
A value of pIC50 is the negative decimal logarithm of a concentration given in moles per litre.

Worked cases, answers included:
molecule="Cn1c(=O)ccc2ccc(F)c(C[C@H](O)CNC[C@H]3CN(c4ccc5c(n4)NC(=O)CO5)C(=O)O3)c21 (single isomer, unassigned) [Example 18]" measured_attribute=pIC50 experimental_value=7.62
molecule="Cn1c(=O)ccc2ccc(F)c(CCNC[C@@H]3CN(c4cnc5c(n4)NC(=O)CO5)C(=O)O3)c21 [Example 14]" measured_attribute=pIC50 experimental_value=7.28
molecule="Cn1c(=O)ccc2ccc(F)c(CCNC[C@H]3CN(c4ncc5c(n4)NC(=O)CO5)C(=O)O3)c21 [Example 16]" measured_attribute=pIC50 experimental_value=6.95

Read the next record carefully.
The recorded pIC50 for entry Cn1c(=O)ccc2ccc(F)c(CCNC[C@H]3CN(c4cnc5c(n4)NC(=O)CO5)C(=O)O3)c21 [Example 15] equals 8.00
